# Target: T1, mouse programmed cell death protein 1 Fc fusion protein (mPD-1-Fc), mPD-1 C60S (aa 25-167) (Mus musculus, UniProt Q02242, stabilised)
# T1 construct: not cleaved; source: Expi293F, purified (Protein A, SEC; dimeric fraction); not shown: Fc (human), C-terminal, kept
# Protocol Description: SPR; Carterra LSA; Fab from the ammonium sulfate precipitate of the culture supernatant immobilised on a NiHC200M chip; hPD-1 (1-1024 nM) or mPD-1-Fc (4-1024 nM) as analyte, fourfold dilution series, no regeneration; HBS-EP pH 7.4, 25 °C; medians over the spots of a construct, KD = koff/kon
# Test Context: one partner purified
Please respond with reported pKd for every item in the list.
Numbers only, as −log10 of the molar value.

| Binder | pKd |
| --- | --- |
| toripalimab Fab H.N61A (Fab, V domains shown, heavy chain of Sm3 with this change; numbers count from the chain's first residue; as the light chain of Sm3; source: Brevibacillus, culture supernatant (ammonium sulfate precipitate); not shown: 6xHis, C-terminal, kept; 6xHN, C-terminal, kept) VH: QGQLVQSGAEVKKPGASVKVSCKASGYTFTDYEMHWVRQAPIHGLEWIGVIESETGGTAYAQKFKGRVTITADKSTSTAYMELSSLRSEDTAVYYCAREGITTVATTYYWYFDVWGQGTTVTVSS VL: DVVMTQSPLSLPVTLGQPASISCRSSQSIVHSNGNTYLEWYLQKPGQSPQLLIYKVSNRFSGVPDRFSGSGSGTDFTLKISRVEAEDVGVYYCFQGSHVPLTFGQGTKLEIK | 7.49 |
| toripalimab Fab L.F60A (Fab, V domains shown, as the heavy chain of Sm3; light chain of Sm3 with this change; numbers count from the chain's first residue; source: Brevibacillus, culture supernatant (ammonium sulfate precipitate); not shown: 6xHis, C-terminal, kept; 6xHN, C-terminal, kept) VH: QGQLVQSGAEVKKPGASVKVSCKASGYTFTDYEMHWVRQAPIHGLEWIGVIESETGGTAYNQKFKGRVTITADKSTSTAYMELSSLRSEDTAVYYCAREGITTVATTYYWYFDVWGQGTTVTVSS VL: DVVMTQSPLSLPVTLGQPASISCRSSQSIVHSNGNTYLEWYLQKPGQSPQLLIYKVSNRASGVPDRFSGSGSGTDFTLKISRVEAEDVGVYYCFQGSHVPLTFGQGTKLEIK | 6.74 |

We now examine a further binder.
Q: Name the recorded pKd for toripalimab Fab L.I29A (Fab, V domains shown, as the heavy chain of Sm3; light chain of Sm3 with this change; numbers count from the chain's first residue; source: Brevibacillus, culture supernatant (ammonium sulfate precipitate); not shown: 6xHis, C-terminal, kept; 6xHN, C-terminal, kept) VH: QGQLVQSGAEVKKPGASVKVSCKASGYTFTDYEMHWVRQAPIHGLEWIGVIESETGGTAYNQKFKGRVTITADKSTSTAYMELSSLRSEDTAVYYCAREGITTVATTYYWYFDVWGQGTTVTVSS VL: DVVMTQSPLSLPVTLGQPASISCRSSQSAVHSNGNTYLEWYLQKPGQSPQLLIYKVSNRFSGVPDRFSGSGSGTDFTLKISRVEAEDVGVYYCFQGSHVPLTFGQGTKLEIK .
Ans: 7.19
